# method.description: Volume of distribution at steady state in ICR mouse at 1 mg/kg, iv measured over 24 hrs by LC-MS/MS analysis
# Type: ADME, organism-based
# condition: in vivo, read-out: Vdss
property.name: Vd (L/kg)
Just the number please, in L/kg, no unit attached.

Sure, the documented Vd for Cc1c(Nc2nc3c(s2)CCCC3O)cc(Cl)cc1OC1CCN(C(=O)CC(C(F)(F)F)C(F)(F)F)CC1 (racemic) is 2.95

----------
# method.description: Cmax in ICR mouse at 1 mg/kg, iv measured over 24 hrs by LC-MS/MS analysis
# Format: ADME, organism-based
# Parameters: route intravenous, dose 1 mg/kg, time >24
# condition: in vivo
property.name: Cmax
Dear colleague, please send the value followed by its unit.

Sure, the documented Cmax for Cc1c(Nc2nc3c(s2)CCCC3O)cc(Cl)cc1OC1CCN(C(=O)CC(C(F)(F)F)C(F)(F)F)CC1 (racemic) is 590 ng/mL
